The origin of these recorded values is patent US20260152504A1.

Molecular target: sGC (Rattus norvegicus, UniProt P20595)
Construct: Rat primary neurons were isolated from timed-pregnant female Sprague-Dawley (SD) rats; endogenous in cells
Sequence (P20595 1-619): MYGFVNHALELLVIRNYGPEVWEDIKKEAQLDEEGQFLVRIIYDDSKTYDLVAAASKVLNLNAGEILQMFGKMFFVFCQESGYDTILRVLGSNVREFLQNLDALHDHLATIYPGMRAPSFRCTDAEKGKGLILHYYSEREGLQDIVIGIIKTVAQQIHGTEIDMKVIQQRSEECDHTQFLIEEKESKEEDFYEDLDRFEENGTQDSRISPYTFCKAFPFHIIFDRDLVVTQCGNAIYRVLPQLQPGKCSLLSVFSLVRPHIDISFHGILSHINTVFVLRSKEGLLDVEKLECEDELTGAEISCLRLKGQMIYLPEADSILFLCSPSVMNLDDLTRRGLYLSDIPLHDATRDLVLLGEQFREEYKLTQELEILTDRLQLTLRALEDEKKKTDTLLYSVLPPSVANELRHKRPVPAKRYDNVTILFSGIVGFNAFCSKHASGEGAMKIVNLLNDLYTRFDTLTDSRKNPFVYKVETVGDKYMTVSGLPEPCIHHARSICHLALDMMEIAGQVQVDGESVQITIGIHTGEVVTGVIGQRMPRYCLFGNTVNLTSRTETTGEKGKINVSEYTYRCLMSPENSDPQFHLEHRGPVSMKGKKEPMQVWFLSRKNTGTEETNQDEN
Sequence (P19686 1-690 partner): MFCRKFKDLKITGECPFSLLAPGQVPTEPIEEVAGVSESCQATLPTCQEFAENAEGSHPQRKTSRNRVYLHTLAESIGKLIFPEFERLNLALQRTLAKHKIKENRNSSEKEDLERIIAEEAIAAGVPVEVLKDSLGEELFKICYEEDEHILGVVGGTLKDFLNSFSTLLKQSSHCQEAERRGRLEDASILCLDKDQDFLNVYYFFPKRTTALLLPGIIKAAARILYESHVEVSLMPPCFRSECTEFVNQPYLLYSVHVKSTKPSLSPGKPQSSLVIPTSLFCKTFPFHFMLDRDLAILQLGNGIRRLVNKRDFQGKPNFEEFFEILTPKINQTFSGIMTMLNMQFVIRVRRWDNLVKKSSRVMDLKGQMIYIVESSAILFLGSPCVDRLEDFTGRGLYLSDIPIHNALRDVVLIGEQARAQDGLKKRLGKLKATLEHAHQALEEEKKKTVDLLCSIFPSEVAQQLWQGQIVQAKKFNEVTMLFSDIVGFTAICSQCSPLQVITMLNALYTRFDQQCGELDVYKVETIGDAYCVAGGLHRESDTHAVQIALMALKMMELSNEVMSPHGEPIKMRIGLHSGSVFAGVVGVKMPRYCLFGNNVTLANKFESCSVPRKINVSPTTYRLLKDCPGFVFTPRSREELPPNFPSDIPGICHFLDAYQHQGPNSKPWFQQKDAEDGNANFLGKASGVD
Test: cGMP measurement in rat primary neurons (neuronal-based cell assay)
Conditions: rat primary neurons (Sprague-Dawley); 0.5 mM IBMX; test compound with fixed DETA (Diethylenetriamine NONOate); 20 min at 37° C.; cGMP by CatchPoint kit; read-out: sGC Neuron EC50
Method: Example 2: cGMP Measurement in Rat Primary Neurons Rat primary neurons were isolated from timed-pregnant female Sprague-Dawley (SD) rats, washed once with HBSS with calcium and magnesium and incubated with a solution containing 0.5 mM 3-isobutyl-1-methylxanthine (IBMX) in HBSS (80 μL/well) at 37° C. for 15 min. […] CatchPoint™ Cyclic-GMP Fluorescent Assay Kit was used with Molecular Devices' ID3 multi-mode plate reading. […]
READOUT NAME: EC50

[[record]]
chemical_smiles = "COCc1nc(-c2cn3ccnc3c(Cc3cc(F)c(C)cc3F)n2)nc(O)c1OC"
value = "> 5000 nM"

[[record]]
chemical_smiles = "Cc1cc(F)c(Cc2nc(-c3ncc(C#N)c(O)n3)cn3c(F)cnc23)cc1F"
value = "≤ 100 nM"

[[record]]
chemical_smiles = "CCc1cc(O)nc(-c2cn3ccnc3c(Cc3cc(F)c(C)cc3F)n2)n1"
value = "1000 to 5000 nM"

[[record]]
chemical_smiles = "CC(=O)c1ccc(Cc2nc(-c3ncc(F)c(O)n3)cn3c(Cl)cnc23)c(F)c1"
value = "> 5000 nM"

[[record]]
chemical_smiles = "Cc1cc(C#N)c(F)cc1Cc1nc(-c2ncc(F)c(O)n2)cn2c(F)cnc12"
value = "> 5000 nM"

[[record]]
chemical_smiles = "Cc1cc(F)c(Cc2nc(-c3ncc(CO)c(O)n3)cn3ccnc23)cc1F"
value = "100 to 1000 nM"

[[record]]
chemical_smiles = "CC(=O)c1cnc2c(Cc3cc(F)ccc3F)nc(-c3nc(C)c(F)c(O)n3)cn12"
value = "> 5000 nM"

[[record]]
chemical_smiles = "CC(=O)c1cnc(-c2cn3ccnc3c(Cc3cc(F)c(C)cc3F)n2)nc1O"
value = "100 to 1000 nM"

